# PROTOCOL: Metabolic stability, dog liver microsomes
# Type: in vitro ADME
# PARTICULARS: 30 min, 1 μM
RECORDED METRIC: Metabolic Stability (% Remain, 30 min) Dog (% Remain)
A number alone suffices; assume % Remain.

MOLECULE: CN(C)CCOC(=O)c1c2c(c3ccccc3c1O)OC(C)(C)C=C2
NUMERIC READOUT: 2

MOLECULE: COC(=O)c1c2c(c3ccc(C)cc3c1O)OC(C)(C)C=C2 [14b]
NUMERIC READOUT: 4

MOLECULE: CN1CCN(CCOC(=O)c2c3c(c4ccccc4c2O)OC(C)(C)C=C3)CC1
NUMERIC READOUT: 11

Turning to the following molecule.
**Q:** Given CC1(C)C=Cc2c(C(=O)OCCN3CCOCC3)c(O)c3ccc(F)cc3c2O1 [15d] , state its recorded Metabolic Stability (% Remain, 30 min) Dog.
**A:** 30

----------
# PROTOCOL: Metabolic stability, mouse liver microsomes
# Assay type: in vitro ADME
# PARTICULARS: 30 min, 1 μM
Lab note: anything with Metabolic Stability (% Remain, 30 min) Mouse at or over 10 % Remain counts as 1; the rest go in 0.

Worked cases, answers included:
COMPOUND: CN(C)CCCOC(=O)c1c2c(c3ccccc3c1O)OC(C)(C)C=C2 [6b]
ASSIGNED LABEL: 0
//
COMPOUND: CN(C)CCOC(=O)c1c2c(c3ccccc3c1O)OC(C)(C)C=C2 [6a]
ASSIGNED LABEL: 0
//
COMPOUND: COC(=O)c1c2c(c3ccc(C(F)(F)F)cc3c1O)OC(C)(C)C=C2 [14c]
ASSIGNED LABEL: 1

**Q:** Please tell me: is the compound CC1(C)C=Cc2c(C(=O)OCCN3CCOCC3)c(O)c3ccc(F)cc3c2O1 [15d] at or over 10 % Remain in terms of Metabolic Stability (% Remain, 30 min) Mouse?
**A:** 1

----------
# PROTOCOL: Plasma stability, rat plasma
# Type: in vitro ADME
# PARTICULARS: 2 h, 37 °C, 1 μM
RECORDED METRIC: Plasma Stability (% Remain, 2 h) Rat (% Remain)
A number alone suffices; assume % Remain.

**Q:** Given CC1(C)C=Cc2c(C(=O)OCCN3CCOCC3)c(O)c3ccc(F)cc3c2O1 [15d] , state its recorded Plasma Stability (% Remain, 2 h) Rat.
**A:** 81

**Q:** Given CC1(C)C=Cc2c(C(=O)OCCN3CCOCC3)c(O)c3ccccc3c2O1 , state its recorded Plasma Stability (% Remain, 2 h) Rat.
**A:** 97

**Q:** Given CN1CCC(OC(=O)c2c3c(c4ccccc4c2O)OC(C)(C)C=C3)CC1 , state its recorded Plasma Stability (% Remain, 2 h) Rat.
**A:** 100

----------
# Test system: TNF-α-induced adhesion of U937 monocytic cells to HT-29 cells
# PROTOCOL: TNF-α-induced colonic epithelial cell adhesion assay
# Format: cell-based, human
# PARTICULARS: Homo sapiens, Epithelial cell, 10 uM; U937 adhesion to HT-29 cells, TNF-α-induced
RECORDED METRIC: inhibition at 10 µM (%)
A number alone suffices; assume %.

Example results:
COMPOUND: CN(C)CCCOC(=O)c1c2c(c3ccccc3c1O)OC(C)(C)C=C2
inhibition at 10 µM [%]: 39.6
//
COMPOUND: COC(=O)c1c2c(c3ccc(C)cc3c1O)OC(C)(C)C=C2 [14b]
inhibition at 10 µM [%]: 29.8
//
COMPOUND: COC(=O)c1c2c(c3ccc(F)cc3c1O)OC(C)(C)C=C2 [14a]
inhibition at 10 µM [%]: 36.1

Turning to the following compound.
**Q:** Given CN1CCN(CCCOC(=O)c2c3c(c4ccccc4c2O)OC(C)(C)C=C3)CC1 , state its recorded inhibition at 10 µM.
**A:** 58.5
